System: E. coli JW5503
Experiment: Broth microdilution MIC, efflux-defective E. coli JW5503 (tolC deletion mutant)
Format: cell-based, Escherichia coli
Conditions: Escherichia coli, JW5503, read-out: Minimum inhibitory concentrations, E. coli JW5503; −Fe: ID-CAMHB
Method: Cefiderocol, a siderophore cephalosporin, was used as a positive control. Compound 18a was only tested on E. coli in both media conditions. […] The single-gene knock-out mutant strain of E. coli JW5503 (tolC knock-out) was obtained from the E. coli collection of the National BioResource Project at the National Institute of Genetics (Japan).[45] […] Preliminary screening was performed at 50 μM, and growth inhibition was measured after 24 h incubation at 37 °C. […]
MEASURE_NAME: MIC (µM)
Unit µM implied. Number only.

Answer with reported MIC of Cc1[nH]c(C(=O)Nc2nc3c(OCc4cc(=O)c(O)c[nH]4)cc(C(=O)O)cc3s2)c(Cl)c1Cl [Compound 18b]
12.5

Please look at this compound and report its MIC: CC(C)(O/N=C(\C(=O)N[C@@H]1C(=O)N2C(C(=O)[O-])=C(C[N+]3(CCNC(=O)c4ccc(O)c(O)c4Cl)CCCC3)CS[C@H]12)c1csc(N)n1)C(=O)O [Cefiderocol, reference compound]
0.0625

====

Record form. Attribute: pIC50. Fill in for each entry.
biological target: E. coli topoisomerase IV (Escherichia coli); test: E. coli topoisomerase IV relaxation assay; format: biochemical; conditions: average of three independent measurements
Sequence (P0AFI2 whole entry): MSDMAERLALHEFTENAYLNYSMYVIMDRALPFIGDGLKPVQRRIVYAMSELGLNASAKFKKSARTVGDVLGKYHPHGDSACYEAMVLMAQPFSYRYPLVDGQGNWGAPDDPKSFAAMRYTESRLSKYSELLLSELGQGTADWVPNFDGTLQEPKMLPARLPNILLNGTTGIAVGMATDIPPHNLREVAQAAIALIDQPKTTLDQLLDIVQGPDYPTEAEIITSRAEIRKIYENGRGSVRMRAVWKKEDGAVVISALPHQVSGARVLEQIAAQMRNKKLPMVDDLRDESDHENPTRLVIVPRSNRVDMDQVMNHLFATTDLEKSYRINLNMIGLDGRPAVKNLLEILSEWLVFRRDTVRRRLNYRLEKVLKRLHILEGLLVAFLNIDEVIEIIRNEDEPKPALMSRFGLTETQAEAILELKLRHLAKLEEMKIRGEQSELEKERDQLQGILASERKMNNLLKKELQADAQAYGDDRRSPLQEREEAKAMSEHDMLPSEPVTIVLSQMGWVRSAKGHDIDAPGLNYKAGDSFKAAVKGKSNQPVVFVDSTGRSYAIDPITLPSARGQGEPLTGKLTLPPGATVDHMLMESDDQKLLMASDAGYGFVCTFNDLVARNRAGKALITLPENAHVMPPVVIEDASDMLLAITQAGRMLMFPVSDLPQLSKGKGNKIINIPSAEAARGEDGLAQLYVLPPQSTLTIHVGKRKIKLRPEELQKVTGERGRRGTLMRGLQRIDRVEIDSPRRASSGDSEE
Sequence (P20083 whole entry): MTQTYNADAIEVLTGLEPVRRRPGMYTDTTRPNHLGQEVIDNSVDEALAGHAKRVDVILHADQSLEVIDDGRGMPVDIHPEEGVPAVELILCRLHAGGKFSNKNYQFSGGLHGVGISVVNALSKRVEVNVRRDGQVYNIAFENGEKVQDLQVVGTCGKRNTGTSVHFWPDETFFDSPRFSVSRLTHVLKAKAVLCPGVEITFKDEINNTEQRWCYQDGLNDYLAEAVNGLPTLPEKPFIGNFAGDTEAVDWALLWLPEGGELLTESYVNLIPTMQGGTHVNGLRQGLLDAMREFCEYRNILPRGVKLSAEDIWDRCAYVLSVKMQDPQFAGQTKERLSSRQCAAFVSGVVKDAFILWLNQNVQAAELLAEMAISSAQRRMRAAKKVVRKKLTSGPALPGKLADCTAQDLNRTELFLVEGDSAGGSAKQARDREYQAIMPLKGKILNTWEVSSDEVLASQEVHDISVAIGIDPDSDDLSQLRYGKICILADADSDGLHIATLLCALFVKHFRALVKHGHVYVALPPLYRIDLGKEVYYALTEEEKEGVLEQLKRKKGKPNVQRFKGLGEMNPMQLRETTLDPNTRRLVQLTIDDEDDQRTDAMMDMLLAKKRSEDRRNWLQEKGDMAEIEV
The value called pIC50 is obtained by taking minus log10 of the concentration in mol/L.

Provide E. coli topoisomerase IV (Escherichia coli) pIC50 reading for O=C(O)c1cc(OCc2cc(=O)c(O)c[nH]2)c2nc(NC(=O)c3cc(Br)c(Br)[nH]3)sc2c1 [Compound 18a] .
5.89

Send back E. coli topoisomerase IV (Escherichia coli) pIC50 of Cc1[nH]c(C(=O)Nc2nc3c(OCc4cc(=O)c(O)c[nH]4)cc(C(=O)O)cc3s2)c(Cl)c1Cl [Compound 18b] only.
6.37

====

tested on: P. aeruginosa ATCC 27853; assay: Broth microdilution MIC, P. aeruginosa ATCC 27853; format: cell-based; conditions: Pseudomonas aeruginosa, ATCC27853, P. aeruginosa ATCC 27853; −Fe: ID-CAMHB; read-out: Minimum inhibitory concentrations
What MIC was measured for each of the following?

Could you please provide reported MIC for O=C(NCc1cc(=O)c(O)co1)c1ccc2nc(NC(=O)c3cc(Br)c(Br)[nH]3)sc2c1 ? Thanks!
> 50 µM

Output MIC of O=C(NCc1cc(=O)c(O)c[nH]1)c1ccc2nc(NC(=O)c3cc(Br)c(Br)[nH]3)sc2c1
> 50 µM

Note MIC for the molecule shown: CC(C)(O/N=C(\C(=O)N[C@@H]1C(=O)N2C(C(=O)[O-])=C(C[N+]3(CCNC(=O)c4ccc(O)c(O)c4Cl)CCCC3)CS[C@H]12)c1csc(N)n1)C(=O)O [Cefiderocol, reference compound]
0.25 µM

Tell me measured MIC for Cc1[nH]c(C(=O)Nc2nc3c(OCc4cc(=O)c(O)c[nH]4)cc(C(=O)O)cc3s2)c(Cl)c1Cl [Compound 18b] please.
> 50 µM

====

test system: E. coli ATCC 25922; experiment: Broth microdilution MIC, E. coli ATCC 25922; format: cell-based, Escherichia coli; conditions: Escherichia coli, ATCC25922, read-out: Minimum inhibitory concentrations
MEASURE_NAME: MIC

Provide MIC, recorded with E. coli ATCC 25922, of CC(C)(O/N=C(\C(=O)N[C@@H]1C(=O)N2C(C(=O)[O-])=C(C[N+]3(CCNC(=O)c4ccc(O)c(O)c4Cl)CCCC3)CS[C@H]12)c1csc(N)n1)C(=O)O [Cefiderocol, reference compound]
0.25 µM

Provide measured MIC on E. coli ATCC 25922 for O=C(NCc1cc(=O)c(O)co1)c1ccc2nc(NC(=O)c3cc(Br)c(Br)[nH]3)sc2c1 please.
> 50 µM

State measured MIC of the compound Cc1[nH]c(C(=O)Nc2nc3c(OCc4cc(=O)c(O)c[nH]4)cc(C(=O)O)cc3s2)c(Cl)c1Cl [Compound 18b] with E. coli ATCC 25922.
> 50 µM

Enter measured MIC, system E. coli ATCC 25922, for the compound shown: O=C(NCc1cc(=O)c(O)c[nH]1)c1ccc2nc(NC(=O)c3cc(Br)c(Br)[nH]3)sc2c1
> 50 µM
